Cited source: patent US20120101169A1

Experimental protocol: Food-effect and regimen pharmacokinetics, single 3-g daily ATQ dose (Example 5 Part 1)
Format: in vivo, human
Recorded conditions: male, human, plasma, oral, 3 g, 3-g BID, high-fat meal, median, N = 6; read-out: Tmax
Attribute measured: Tmax (h)
Entry rule: numbers only, all in h.

Qu. Give the measured Tmax of CC1=C(C)C(=O)C(CC[C@](C)(O)CCC[C@H](C)CCC[C@H](C)CCCC(C)C)=C(C)C1=O [ATQ, alpha-tocopherolquinone] .
Ans. 10.5

* * *

Experimental protocol: Food-effect and regimen pharmacokinetics, single 3-g daily ATQ dose (Example 5 Part 1)
Format: in vivo, human
Recorded conditions: male, human, plasma, oral, 3 g, single 3-g daily dose, across treatments; read-out: mean t1/2 values (range across treatments)
Attribute measured: half-life

Qu. Dear colleague, I am looking for the recorded half-life of the following compound: CC1=C(C)C(=O)C(CC[C@](C)(O)CCC[C@H](C)CCC[C@H](C)CCCC(C)C)=C(C)C1=O [ATQ, alpha-tocopherolquinone]
Ans. 4.2 to 5.37 h

* * *

Experimental protocol: Multiple ascending dose pharmacokinetics of ATQ (Example 5 Part 2)
Type: in vivo, human
Recorded conditions: both sexes, human, plasma, oral, 1 g/day, 1-g/day (0.5 g BID), 2 times the 0-12 hour morning dose value, N = 5; read-out: AUC(0-tau, 24)
Attribute measured: AUC
I'd appreciate it if you wrote the number followed by its unit.

Qu. Name the recorded AUC for CC1=C(C)C(=O)C(CC[C@](C)(O)CCC[C@H](C)CCC[C@H](C)CCCC(C)C)=C(C)C1=O .
Ans. 25000 ng·h/mL

* * *

Experimental protocol: Single-dose ascending-dose pharmacokinetics of ATQ in healthy volunteers (Example 4)
Recorded conditions: male, human, plasma, oral
Attribute measured: Tmax (h)
Expressed in h, but write only the number.

Qu. Quick one: Tmax of CC1=C(C)C(=O)C(CC[C@](C)(O)CCC[C@H](C)CCC[C@H](C)CCCC(C)C)=C(C)C1=O ?
Ans. 6

* * *

Experimental protocol: Multiple ascending dose pharmacokinetics of ATQ (Example 5 Part 2)
Type: in vivo, human
Recorded conditions: both sexes, human, plasma, oral, 0.75 g, 1.5-g/day (0.75 g BID), 2 times the 0-12 hour morning dose value, N = 6; read-out: AUC(0-tau, 24)
Attribute measured: AUC

Qu. AUC lookup needed for CC1=C(C)C(=O)C(CC[C@](C)(O)CCC[C@H](C)CCC[C@H](C)CCCC(C)C)=C(C)C1=O , thanks.
Ans. 33200 ng·h/mL

* * *

Experimental protocol: Food-effect and regimen pharmacokinetics, single 3-g daily ATQ dose (Example 5 Part 1)
Format: in vivo, human
Recorded conditions: male, human, plasma, oral, 3 g, 3-g BID, standard meal, mean, N = 6; read-out: t1/2 (converted)
Attribute measured: half-life (min)
All answers are understood in min, so give the number only.

Qu. # half-life lookup, item CC1=C(C)C(=O)C(CC[C@](C)(O)CCC[C@H](C)CCC[C@H](C)CCCC(C)C)=C(C)C1=O
Ans. 260

* * *

Experimental protocol: Food-effect and regimen pharmacokinetics, single 3-g daily ATQ dose (Example 5 Part 1)
Type: in vivo, human
Recorded conditions: male, human, plasma, oral, 3 g, 3-g BID, standard meal, median, N = 6; read-out: Tmax
Attribute measured: Tmax

Qu. For the compound CC1=C(C)C(=O)C(CC[C@](C)(O)CCC[C@H](C)CCC[C@H](C)CCCC(C)C)=C(C)C1=O , what Tmax is on record?
Ans. 6 h
